pIC50: −log10 of the molar value.
Reported pIC50 against Prothrombin (Homo sapiens), gathered from multiple publications, appears below.

# annotated cases, reported pIC50 shown
O=C(N[C@@H](C(=O)Nc1ccc(N2CCOCC2=O)cc1)c1ccccc1)c1ccc(Cl)s1
< 5.00
CC(C)/N=C1\C=C(O)C(c2ccccc2)=C(CC(=O)NCc2ccc(C(=N)N)cc2)C1=O
< 4.52

Next compound, please.
Field pIC50 (entry "Cc1cc(C(=O)Nc2ccc(-c3ccccc3S(N)(=O)=O)cc2)n(-c2ccc3cc(Cl)ccc3c2)n1" ) reads < 4.96

* * *

Below are IC50 values for Prothrombin (Homo sapiens, UniProt P00734) collected from several publications.

CC(=O)NNCc1ccc(C(=O)Nc2ccc(Cl)cc2C(=O)Nc2ccc(Cl)cn2)cc1
> 11 µM

Documented IC50 of CCN(C(=O)C1=CCCC1C(=O)NCc1ccc(C(=N)N)cc1)c1ccc(OC)cc1 (stereo not drawn) : 0.94 µM

Noted for "CC(=C(F)C(=O)Nc1ccc(-c2ccccc2S(N)(=O)=O)cc1Cl)c1cccc(C(=N)N)c1" : its IC50 reads 0.65 µM

Notebook: "C/N=C(/NC)N(C)Cc1ccc(C(=O)Nc2ccc(Cl)cc2C(=O)Nc2ccc(Cl)cn2)cc1" , IC50 read as > 11 µM

Record "COC[C@@H](NC(=O)c1ccc(Cl)s1)C(=O)Nc1ccc(N2CCOCC2=O)c(C)c1" , field IC50: > 10 µM

Sample "N=C(N)c1ccc(CNC(=O)Cn2c(-c3cccc(N)c3)c(Cl)nc(NC3CCC3)c2=O)cc1F" ; IC50 observed: > 30 µM

According to the records, this molecule CN1CCc2nc(C(=O)N[C@@H]3CCCCC[C@H]3NC(=O)c3cc4cc(Cl)ccc4[nH]3)sc2C1 (relative stereo) displays IC50 of > 100 µM

The reported IC50 of the molecule "Cn1c(Cc2ccc(C(=N)N)cc2)nc2cc(NS(=O)(=O)c3cc(C(F)(F)F)cc(C(F)(F)F)c3)ccc21" was > 100 µM
